Reference source: paper PMC9908924

measured_attribute: IC50 (µM)
Just the number in µM, nothing appended.

**Q:** Can you look up IC50 on USP22 (Homo sapiens, UniProt Q9UPT9) for O=C(CCl)N1CCC(O)(CNc2ncc3ccccc3n2)CC1 [XL_10320_009A] ?
**A:** 94.4
